experimental system: Rap guanine nucleotide exchange factor 3 (Homo sapiens) (UniProt O95398)
Sequence (whole entry): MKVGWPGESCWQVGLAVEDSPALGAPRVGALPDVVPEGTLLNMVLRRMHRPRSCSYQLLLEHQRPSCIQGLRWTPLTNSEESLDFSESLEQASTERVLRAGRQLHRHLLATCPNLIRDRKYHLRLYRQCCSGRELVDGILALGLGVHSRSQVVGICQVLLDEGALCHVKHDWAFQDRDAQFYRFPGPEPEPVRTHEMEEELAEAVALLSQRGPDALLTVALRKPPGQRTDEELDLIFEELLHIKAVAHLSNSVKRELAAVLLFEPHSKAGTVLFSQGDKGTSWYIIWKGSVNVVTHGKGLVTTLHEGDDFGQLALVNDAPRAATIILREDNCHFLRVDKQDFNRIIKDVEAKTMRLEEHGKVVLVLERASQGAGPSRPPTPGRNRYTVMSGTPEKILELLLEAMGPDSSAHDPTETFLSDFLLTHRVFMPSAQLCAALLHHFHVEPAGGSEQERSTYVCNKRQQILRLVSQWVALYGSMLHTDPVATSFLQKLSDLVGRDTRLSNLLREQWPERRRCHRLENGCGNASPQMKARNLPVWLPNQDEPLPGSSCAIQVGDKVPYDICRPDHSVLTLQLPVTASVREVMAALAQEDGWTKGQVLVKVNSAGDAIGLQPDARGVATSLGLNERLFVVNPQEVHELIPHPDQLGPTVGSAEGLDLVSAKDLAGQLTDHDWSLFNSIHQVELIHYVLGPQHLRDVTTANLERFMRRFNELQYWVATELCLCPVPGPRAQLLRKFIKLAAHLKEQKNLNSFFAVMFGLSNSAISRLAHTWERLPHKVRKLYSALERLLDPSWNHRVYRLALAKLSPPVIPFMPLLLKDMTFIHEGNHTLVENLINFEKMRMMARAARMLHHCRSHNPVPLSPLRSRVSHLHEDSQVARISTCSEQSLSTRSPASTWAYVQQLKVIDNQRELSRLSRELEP
test method notes: Binding affinity to GST-tagged recombinant EPAC1 CNBD (169 to 318 residues) (unknown origin) expressed in Escherichia coli BL21 Star (DE3) assessed as relative fluorescence intensity incubated for 4 hrs by 8-NBD-cAMP competition binding assay relative to control
Set-up: concentration or dose not given beside the values
measured quantity: Activity (%)
Report the figure in % without appending any unit label.

For this compound ( "Cc1ccc(S(=O)(=O)NC(=O)COc2ccc3[nH]ccc3c2)c(C)c1" ), measured Activity is 91

For this compound ( "Cc1cc(C)c(S(=O)(=O)NC(=O)COc2cccc3ccccc23)c(C)c1" ), measured Activity is 94

For this compound ( "COc1ccc(S(=O)(=O)NC(=O)COc2ccc3ccccc3c2)cc1OC" ), measured Activity is 50

For this compound ( "Cc1cc(Br)cc(S(=O)(=O)NC(=O)COc2ccc3ccccc3c2)c1" ), measured Activity is 58

For this compound ( "Cc1cc(C)c(S(=O)(=O)NC(=O)COc2ccc3cccnc3c2)c(C)c1" ), measured Activity is 92

For this compound ( "Cc1ccc(S(=O)(=O)NC(=O)C(C)(C)Oc2ccc3ccccc3c2)c(C)c1" ), measured Activity is 76

For this compound ( "O=C(COc1ccc2ccccc2c1)NS(=O)(=O)c1ccccc1" ), measured Activity is 49

For this compound ( "Cc1cc(C)c(S(=O)(=O)NC(=O)COc2ccc3c(c2)CCCC3)c(C)c1" ), measured Activity is 77

For this compound ( "Cc1cc(C)c(S(=O)(=O)NC(=O)CNc2ccc3ccccc3c2)c(C)c1" ), measured Activity is 97

For this compound ( "O=C(COc1ccc2ccccc2c1)NS(=O)(=O)c1cccc([N+](=O)[O-])c1" ), measured Activity is 67
